Target: GCH1 (Homo sapiens, UniProt P30793)
Construct: The hGCH1 (42-250, N-terminal 6xHis Tag and TEV cleavage site); 6xHis (N); TEV cleavage site (N); made in house; host or cells: E. coli BL21(DE3)
Sequence (P30793 42-250): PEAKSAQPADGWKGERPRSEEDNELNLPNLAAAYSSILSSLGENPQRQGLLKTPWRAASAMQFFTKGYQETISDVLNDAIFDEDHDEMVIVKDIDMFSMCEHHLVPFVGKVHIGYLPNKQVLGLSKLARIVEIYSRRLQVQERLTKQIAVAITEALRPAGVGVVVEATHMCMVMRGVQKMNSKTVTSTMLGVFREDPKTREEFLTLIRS
Assay: STD-NMR titration of 7-deaza-GTP to GCH1 (initial slopes of build-up curves)
Format: binding
Details: KD (STD-NMR, initial slopes), proton H7, 5mM BH4
pKd: −log10 of the molar value.
observed_property: pKd

[[record]]
compound = "Nc1nc2c(ccn2C2OC(COP(=O)(O)OP(=O)(O)OP(=O)(O)O)C(O)C2O)c(=O)[nH]1 (stereo not shown)"
observed_property = "pKd"
readout_number = 3.80


----------
Molecular target: GCH1 (Homo sapiens, UniProt P30793)
Construct: The hGCH1 (42-250, N-terminal 6xHis Tag and TEV cleavage site); 6xHis (N); TEV cleavage site (N); made in house; host or cells: E. coli BL21(DE3)
Sequence (P30793 42-250): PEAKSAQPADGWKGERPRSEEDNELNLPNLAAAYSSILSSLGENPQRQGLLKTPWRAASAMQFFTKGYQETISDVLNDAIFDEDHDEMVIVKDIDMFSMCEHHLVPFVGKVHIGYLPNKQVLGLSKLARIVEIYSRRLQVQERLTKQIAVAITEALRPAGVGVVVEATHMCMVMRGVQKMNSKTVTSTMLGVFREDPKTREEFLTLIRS
Assay: STD-NMR titration of 7-deaza-GTP to GCH1 (initial slopes of build-up curves)
Type: binding
Conditions: KD, free, active hGCH1
observed_property: Kd

[[record]]
compound = "Nc1nc2c(ccn2C2OC(COP(=O)(O)OP(=O)(O)OP(=O)(O)O)C(O)C2O)c(=O)[nH]1 (stereo not shown)"
result = "~600 µM"


----------
target: GCH1 (Homo sapiens, UniProt P30793); construct: The hGCH1 (42-250, N-terminal 6xHis Tag and TEV cleavage site); 6xHis (N); TEV cleavage site (N); made in house; host or cells: E. coli BL21(DE3); experiment: STD-NMR titration of 7-deaza-GTP to GCH1 (initial slopes of build-up curves); assay type: binding; details: KD (STD-NMR, initial slopes), proton H1', 5mM BH4
pKd: −log10 of the molar value.
observed_property: pKd

[[record]]
compound = "Nc1nc2c(ccn2C2OC(COP(=O)(O)OP(=O)(O)OP(=O)(O)O)C(O)C2O)c(=O)[nH]1 (stereo not shown) [7-deaza-GTP]"
observed_property = "pKd"
readout_number = 4.28


----------
Molecular target: GCH1 (Homo sapiens, UniProt P30793)
Construct: The hGCH1 (42-250, N-terminal 6xHis Tag and TEV cleavage site); 6xHis (N); TEV cleavage site (N); made in house; host or cells: E. coli BL21(DE3)
Sequence (P30793 42-250): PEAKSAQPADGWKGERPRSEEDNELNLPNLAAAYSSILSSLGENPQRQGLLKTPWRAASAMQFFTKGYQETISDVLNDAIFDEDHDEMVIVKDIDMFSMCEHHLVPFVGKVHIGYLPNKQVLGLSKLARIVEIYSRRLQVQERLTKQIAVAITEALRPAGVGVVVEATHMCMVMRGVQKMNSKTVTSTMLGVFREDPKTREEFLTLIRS
Assay: STD-NMR titration of 7-deaza-GTP to GCH1 (initial slopes of build-up curves)
Format: binding
Conditions: KD, BH4-bound inhibited hGCH1
pKd: −log10 of the molar value.
observed_property: pKd

[[record]]
molecule = "Nc1nc2c(ccn2C2OC(COP(=O)(O)OP(=O)(O)OP(=O)(O)O)C(O)C2O)c(=O)[nH]1 (stereo not shown) [7-deaza-GTP]"
observed_property = "pKd"
result = "~4.00"

